Where do these numbers come from? They come from patent US6784201B2.

target_or_test_system: human IBAT (Homo sapiens, UniProt Q12908)
Construct: expressed in transfected cells; host or cells: Baby hamster kidney (BHK) cells, clone H14
Sequence (Q12908 1-348): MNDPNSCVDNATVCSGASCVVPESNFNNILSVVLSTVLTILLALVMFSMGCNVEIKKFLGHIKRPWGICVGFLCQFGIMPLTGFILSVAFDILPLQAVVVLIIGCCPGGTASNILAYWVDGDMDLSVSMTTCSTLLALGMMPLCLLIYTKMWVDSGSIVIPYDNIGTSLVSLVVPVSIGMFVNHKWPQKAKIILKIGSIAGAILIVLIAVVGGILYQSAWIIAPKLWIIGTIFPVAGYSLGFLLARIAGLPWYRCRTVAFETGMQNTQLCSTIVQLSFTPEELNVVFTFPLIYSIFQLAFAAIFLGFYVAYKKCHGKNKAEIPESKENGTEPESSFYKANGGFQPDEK
assay_overview: In vitro assay of IBAT-mediated uptake of [14C]-taurocholate (TC) in H14 cells
Format: cell-based
experimental_context: read-out: Human TC IC50
Description: In Vitro Assay of Compounds that Inhibit IBAT-Mediated Uptake of [^14C]-Taurocholate (TC) in H14 Cells Baby hamster kidney cells (BHK) transfected with the cDNA of human IBAT (H14 cells) are seeded at 60,000 cells/well in 96 well Top-Count tissue culture plates for assays run within in 24 hours of seeding, 30,000 cells/well for assays run within 48 hours, and 10,000 cells/well for assays run within 72 hours. […]
pIC50: −log10 of the molar value.
metric: pIC50

[[record]]
compound = "CCCC[C@]1(CC)CS(=O)(=O)c2ccc(N)cc2[C@@H](c2ccc(O)cc2)[C@H]1O"
recorded_value = 7.00

[[record]]
compound = "CCCCC1(CCCC)CS(=O)(=O)c2ccc(N(C)C)cc2C(c2cccc(OCCOCCOCC[N+](CC)(CC)CCNP(C)(=O)c3ccccc3)c2)C1O (centres unmarked)"
recorded_value = 8.10

[[record]]
compound = "CCCC[C@]1(CC)CS(=O)(=O)c2ccc(N)cc2[C@@H](c2ccc(OCCOCCOCCOc3ccc([C@H]4c5cc(N)ccc5S(=O)(=O)C[C@](CC)(CCCC)[C@H]4O)cc3)cc2)[C@H]1O"
recorded_value = 5.52

[[record]]
compound = "CCCCC1(CCCC)CS(=O)(=O)c2c(OC)cc(N(C)C)cc2C(c2ccc(O)cc2)C1O (centres unmarked)"
recorded_value = 8.82

[[record]]
compound = "CCCCC1(CC)CS(=O)(=O)c2ccc(N(C)C)cc2C(c2cccc(OCCCCOC(C)=O)c2)C1O (centres unmarked)"
recorded_value = 7.70

[[record]]
compound = "CCCCC1(CCCC)CS(=O)(=O)c2ccc(NCC)cc2C(c2ccc(F)cc2)C1O (centres unmarked)"
recorded_value = 7.52

[[record]]
compound = "CCCCC1(CCCC)CS(=O)(=O)c2ccc(N(C)C)cc2C(c2cccc(OCCOCCOCC[N+](CC)(CC)CCN(C)P(C)(=O)c3ccccc3)c2)C1O (centres unmarked)"
recorded_value = 8.40

[[record]]
compound = "CCCCC1(CCCC)CS(=O)(=O)c2ccc(N(C)C)cc2C(c2cccc(OCCOCCOCC[n+]3ccc(-c4ccccc4)cc3)c2)C1O (centres unmarked)"
recorded_value = 8.00

[[record]]
compound = "CCCCC1(CC)CS(=O)(=O)c2ccc(Br)cc2C(c2cccc(OC)c2)C1O (single isomer, unassigned) [Example 272]"
recorded_value = 6.15

[[record]]
compound = "CCCCC1(CC)CS(=O)(=O)c2ccc(NC(=O)OCc3ccccc3)cc2C(c2ccccc2)C1O (centres unmarked)"
recorded_value = 6.40

[[record]]
compound = "CCCCC1(CCCC)CS(=O)(=O)c2ccc(N(C)C)cc2C(c2ccc(O)c(C[N+](C)(C)C)c2)C1O (centres unmarked)"
recorded_value = 6.20

[[record]]
compound = "CCCCC1(CCCC)CS(=O)(=O)c2ccc(N(C)C)cc2C(c2cccc(C[N+](CC)(CC)CC)c2)C1O (centres unmarked)"
recorded_value = 7.46

[[record]]
compound = "CCCCC1(CCCC)CS(=O)(=O)c2ccc(N(C)C)cc2C(c2cccc(OCCOCCOCC[N+](C)(C)CCC(C)CCN(C)C)c2)C1O (centres unmarked)"
recorded_value = 7.74

[[record]]
compound = "CCCCC1(CCCC)CS(=O)(=O)c2ccc(N(C)C)cc2C(c2cccc([N+](C)(C)C)c2)C1O (centres unmarked)"
recorded_value = 6.49

[[record]]
compound = "CCC1(CC)CS(=O)(=O)c2ccc(NC(=O)OCc3ccccc3)cc2[C@@H](c2ccccc2)[C@H]1O"
recorded_value = 4.72

[[record]]
compound = "CCCCC1(CCCC)CS(=O)(=O)c2ccc(N(C)C)cc2C(c2cccc(OCCOCCOCC[n+]3cc4ccccc4c4ccccc43)c2)C1O (centres unmarked)"
recorded_value = 8.40

[[record]]
compound = "C=C(C)C(=O)OCC[N+](CC)(CC)CCOCCOCCOc1cccc(C2c3cc(N(C)C)ccc3S(=O)(=O)CC(CCCC)(CCCC)C2O)c1 (centres unmarked) [Example 1023]"
recorded_value = 8.70

[[record]]
compound = "CCCCC1(CCCC)CS(=O)(=O)c2ccc(N(C)C)cc2C(c2ccc(CC#N)cc2)C1O (centres unmarked)"
recorded_value = 7.70

[[record]]
compound = "CCCCC1(CCCC)CS(=O)(=O)c2ccc(N(C)C)cc2C(c2ccc(OCc3cccc(CCl)n3)c(F)c2)C1O (centres unmarked)"
recorded_value = 7.55

[[record]]
compound = "CCCCC1(CCCC)CS(=O)(=O)c2ccc(N(C)C)cc2C(c2cccc(OCC[N+](C)(C)C)c2)C1O (centres unmarked)"
recorded_value = 8.60

